# Test system: WEE1
# reported.conditions: concentration: 1 μM, replicates: in singlicate; n = 1;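 note: KINOMEscan kinase panel screen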
Each entry below carries its reported %Inh.
quantity.kind: %Inh

INSERT INTO results (substance_smiles, assay_target, quantity_kind, result) VALUES
  ('Cn1cc(-c2ccc3c(c2)CCN3C(=O)Cc2cccc(C(F)(F)F)c2)c2c(N)ncnc21', 'WEE1', '%Inh', '0%'),
  ('Cc1ccc(NC(=O)c2cccc(C#N)c2)cc1-c1ccc(C(=O)Nc2ccncc2)cc1', 'WEE1', '%Inh', '0%'),
  ('CN1c2ccc(-c3ccc(C(=O)NCCO)cc3)cc2-c2[nH]ncc2S1(=O)=O', 'WEE1', '%Inh', '0%'),
  ('COc1ccc(NC(=O)Nc2ccc(C)c(-c3ccc(C(=O)Nc4ccncc4)cc3)c2)cc1', 'WEE1', '%Inh', '34%');

----------
# Tested on: HIPK2
# reported.conditions: concentration: 1 μM, replicates: in singlicate; n = 1
Item-by-item account of %Inh
quantity.kind: %Inh (%)

INSERT INTO results (substance_smiles, numeric_result) VALUES
  ('Oc1ccc2ncnc(Nc3ccc(OCc4ccccc4)cc3)c2c1', 58),
  ('CS(=O)(=O)CCNCc1ccc(-c2ccc3ncnc(Nc4ccc(OCc5ccccc5)c(Cl)c4)c3c2)o1.Cl', 13),
  ('CC(C)(C)c1ccc(-n2cnc3c(N)ncnc32)cc1', 0),
  ('CCc1nc(-c2cccc(C)c2)c(-c2ccnc(NC(=O)c3ccccc3)c2)s1', 9),
  ('O=c1cc(N2CCOCC2)nc2n(Cc3cccc(Cl)c3)ccn12', 0),
  ('O=C(Nc1ccccc1)Nc1ccc(Oc2ccc3nccn3n2)cc1', 0);

----------
# System: MEK2
# Construct: gene MAP2K2
# reported.conditions: concentration: 1 μM, replicates: in singlicate; n = 1
quantity.kind: %Inh (%)

INSERT INTO measurements (compound, numeric_result) VALUES
  ('COc1ccc(NC(=O)Nc2ccc(C)c(-c3ccc(C(=O)Nc4ccncc4)cc3)c2)cc1 [GSK1398475]', 0),
  ('COc1ccc(NC(=O)c2ccc(-c3cc(-c4nnc(C)o4)ccc3C)cc2)cc1 [GW595885]', 0),
  ('O=C(Nc1n[nH]c2nc(-c3ccco3)c(Br)cc12)c1ccc(CN2CCCC2)cc1.O=C(O)[C@H](O)[C@@H](O)C(=O)O [SB-742352]', 0),
  ('Fc1ccc(-c2ncn(CCCNCc3ccccc3)c2-c2ccncc2)cc1', 20);

----------
# Tested on: EPHA6
# reported.conditions: concentration: 1 μM, replicates: in singlicate; n = 1
Below, each of the molecules is paired with its reported %Inh value.
quantity.kind: %Inh

INSERT INTO results (substance_smiles, result) VALUES
  ('N#Cc1ccc(Oc2ccc(Nc3ncnc4cc[nH]c34)cc2Cl)cc1', '23%'),
  ('Nc1nc(-c2cccnc2)c(-c2ccnc3ccccc23)s1', '8%'),
  ('O=C(Nc1ccccc1)Nc1ccc(Oc2ccc3nccn3n2)cc1', '0%'),
  ('OCCOCCn1ccc2ncnc(Nc3ccc(Oc4cccc(Cl)c4)c(Cl)c3)c21', '0%'),
  ('O=C(CCO)NCCn1ccc2ncnc(Nc3ccc(Oc4cccc(C(F)(F)F)c4)c(Cl)c3)c21', '0%'),
  ('Fc1cccc(COc2ccc(Nc3ncnc4sc(-c5ccc[nH]5)cc34)cc2Cl)c1', '0%'),
  ('Cc1ccc(NC(=O)c2cccc(C#N)c2)cc1-c1ccc(C(=O)Nc2ccncc2)cc1', '34%'),
  ('FC(F)(F)c1ccc(-c2cc(-c3c[nH]nc3-c3ccccn3)ccn2)cc1', '0%'),
  ('Nc1nc(-c2ccccn2)c(-c2ccnc3ccccc23)s1', '6%'),
  ('CS(=O)(=O)CCNCc1nc(-c2ccc3ncnc(Nc4ccc(OCc5cccc(F)c5)c(Cl)c4)c3c2)cs1.Cl', '0%'),
  ('Cn1cc(-c2ccc3c(c2)CCN3C(=O)Cc2cccc(C(F)(F)F)c2)c2c(N)ncnc21', '0%'),
  ('CSc1nn2c(=O)cc(N3CCOCC3)nc2n1Cc1cccc(Cl)c1Cl', '3%'),
  ('Fc1cccc(COc2ccc(Nc3ncnc4cc[nH]c34)cc2Cl)c1', '7%'),
  ('CCn1c(-c2ccncc2)nc2cnccc21', '16%'),
  ('C[C@@H]1CCN(C(=O)CO)C[C@@H]1N(C)c1ncnc2[nH]ccc12', '0%'),
  ('COC(=O)c1cccc(NC(=O)NCCNc2ccnc(Nc3ccc(F)cc3)n2)c1', '20%'),
  ('COc1ccc(-c2oc3ncnc(N)c3c2-c2ccc(OC)cc2)cc1', '50%'),
  ('CCc1nc(-c2cccc(C)c2)c(-c2ccnc(NC(=O)c3ccccc3)c2)s1', '45%'),
  ('Nc1nccc2scc(-c3ccc4c(c3)CCN4C(=O)Cc3cc(F)ccc3F)c12', '25%'),
  ('Cc1ccc(C)c(NC(=O)NCCNc2ccnc(Nc3ccc(F)cc3)n2)c1', '0%'),
  ('CNc1nccc(-c2c(-c3ccc(F)cc3)ncn2CCCN2CCOCC2)n1', '0%'),
  ('CC(C)(C)c1ccc(-n2cnc3c(N)ncnc32)cc1', '28%'),
  ('Cc1cc(N2CCC(NS(=O)(=O)c3ccc(F)cc3)CC2)nc(Nc2cccc(C#N)c2)n1.O=C(O)C(F)(F)F', '5%'),
  ('CSc1ccc(NC2=C(c3ccccc3Cl)C(=O)NC2=O)cc1', '0%'),
  ('Cl.Cn1ccc(-c2cccc(Nc3ccnc4cc(-c5nccs5)ccc34)c2)n1', '0%');

----------
# System: RIOK1
# reported.conditions: concentration: 1 μM, replicates: in singlicate; n = 1
// reported %Inh per item
quantity.kind: %Inh (%)

INSERT INTO measurements (compound, assay_target, quantity_kind, numeric_result) VALUES
  ('COc1ccc(Nc2nccc(N3CCC(NC(=O)c4cccc(NC(C)=O)c4)C3)n2)cc1 (stereo not drawn)', 'RIOK1', '%Inh', 37),
  ('CS(=O)(=O)CCNCc1ccc(-c2ccc3ncnc(Nc4ccc(OCc5ccccc5)c(Cl)c4)c3c2)o1.Cl', 'RIOK1', '%Inh', 32),
  ('CC(C)(C)c1ccc(-n2cnc3c(N)ncnc32)cc1', 'RIOK1', '%Inh', 22),
  ('Clc1cccc(-c2nc(Nc3ccncc3)c3ccccc3n2)c1', 'RIOK1', '%Inh', 40),
  ('COc1ccc(Nc2nccc(N3CCC(NC(=O)Nc4ccc5c(c4)OCO5)C3)n2)cc1 (stereo not drawn)', 'RIOK1', '%Inh', 28),
  ('Fc1cccc(COc2ccc(Nc3ncnc4sc(-c5ccc[nH]5)cc34)cc2Cl)c1', 'RIOK1', '%Inh', 22);

----------
# Tested on: WNK4
# reported.conditions: concentration: 1 μM, replicates: in singlicate; n = 1
quantity.kind: %Inh (%)

INSERT INTO measurements (compound, quantity_kind, units, numeric_result) VALUES
  ('Cc1cc(N2CCC(NS(=O)(=O)c3ccc(F)cc3)CC2)nc(Nc2cccc(C#N)c2)n1.O=C(O)C(F)(F)F [GSK1653537]', '%Inh', '%', 0),
  ('CSc1ccc(NC2=C(c3ccccc3Cl)C(=O)NC2=O)cc1 [SB-342411]', '%Inh', '%', 0),
  ('Nc1nc(-c2ccc3c(N)n[nH]c3c2)cc(N2CCCCC2)n1 [GSK2228768]', '%Inh', '%', 0),
  ('Clc1cc(Nc2ncnc3cc[nH]c23)ccc1OCc1ccccn1', '%Inh', '%', 25),
  ('CNc1nccc(-c2c(-c3ccc(F)cc3)ncn2C2CCN(C)CC2)n1 [SB-222903]', '%Inh', '%', 9),
  ('Cl.c1ccc(Cn2ncc3cc(Nc4ncnc5ccccc45)ccc32)cc1 [GW273749]', '%Inh', '%', 0),
  ('CC(=O)Nc1n[nH]c2ncc(-c3ccccc3)cc12 [SB-548492]', '%Inh', '%', 30),
  ('Fc1cccc(COc2ccc(Nc3ncnc4nn5ccccc5c34)cc2Cl)c1 [GW689066]', '%Inh', '%', 23),
  ('c1ccc(-c2ccc3c(-c4ccnc(Nc5ccc6c(c5)OCCO6)n4)cnn3n2)cc1 [GW818941]', '%Inh', '%', 0),
  ('NC(=O)c1sc(-n2cnc3ccccc32)cc1OCc1ccccc1F [GSK1024306]', '%Inh', '%', 0),
  ('COc1cc2c(Nc3cccc(NC(=O)c4ccccc4)c3)ncnc2cc1OCCCN1CCOCC1 [GSK223810]', '%Inh', '%', 0);

----------
# System: PAK6
# reported.conditions: concentration: 1 μM, replicates: in singlicate; n = 1
quantity.kind: %Inh (%)

INSERT INTO assay_data (compound, units, numeric_result) VALUES
  ('O=C(c1ccc(-c2cc(-c3c[nH]nc3-c3ccccn3)ccn2)cc1)N1CCCC1', '%', 9),
  ('Cc1ccc(NC(=O)c2cccc(C#N)c2)cc1-c1ccc(C(=O)Nc2ccncc2)cc1', '%', 0),
  ('C[C@@H]1CCN(C(=O)CO)C[C@@H]1N(C)c1ncnc2[nH]ccc12', '%', 0),
  ('Oc1ccc2ncnc(Nc3ccc(OCc4ccccc4)cc3)c2c1', '%', 0),
  ('O=C(CCO)NCCn1ccc2ncnc(Nc3ccc(Oc4cccc(C(F)(F)F)c4)c(Cl)c3)c21', '%', 0),
  ('CS(=O)(=O)CCNCc1nc(-c2ccc3ncnc(Nc4ccc(OCc5cccc(F)c5)c(Cl)c4)c3c2)cs1.Cl', '%', 0),
  ('Cl.Fc1ccccc1COc1ccc(Nc2ncnc3ccc(-c4nnc(C(F)(F)F)o4)cc23)cc1Cl', '%', 0),
  ('COc1ccc(-c2nc3n(c2-c2ccncc2)CCC3)cc1', '%', 0),
  ('O=C(Nc1ccccc1F)NC1CCN(c2ccnc(Nc3ccc(F)cc3)n2)C1 (stereo not shown)', '%', 0),
  ('Cn1ccc2ncnc(Oc3ccc(NC(=O)Nc4cccnc4)c(Cl)c3)c21', '%', 16),
  ('Cl.c1ccc(Cn2ccc3cc(Nc4ncnc5ccccc45)ccc32)cc1', '%', 8),
  ('CCc1nc(-c2cccc(N(C)S(=O)(=O)c3ccccc3)c2)c(-c2ccnc(Nc3ccc(N4CCN(C(C)=O)CC4)nc3)n2)s1', '%', 5),
  ('COc1ccc(Nc2nccc(N3CCC(NC(=O)c4cccc(NC(C)=O)c4)C3)n2)cc1 (stereo not shown)', '%', 0),
  ('Nc1nc(-c2ccc3c(N)n[nH]c3c2)cc(N2CCCCC2)n1', '%', 0),
  ('Clc1cccc(-c2nc(Nc3ccncc3)c3ccccc3n2)c1', '%', 0),
  ('C[C@H]1CC[C@@H](C(=O)Nc2ccccc2)CN1c1cc(-c2ccc3c(N)n[nH]c3c2)nc(N)n1', '%', 0),
  ('c1ccc(-c2ccc3c(-c4ccnc(Nc5ccc6c(c5)OCCO6)n4)cnn3n2)cc1', '%', 83),
  ('CCC(CC)(CC)n1cnc2c(N)ncnc21', '%', 0),
  ('COc1cc2c(Nc3cccc(NC(=O)c4ccccc4)c3)ncnc2cc1OCCCN1CCOCC1', '%', 0);
